Source listed as patent US20080287445A1.

# TARGET_DESC: GPR73 (prokineticin 1 receptor) (Homo sapiens, UniProt Q8TCW9)
# Construct: expressed in transfected cells; host or cells: HEK 293
# Sequence (Q8TCW9 whole entry, species assumed): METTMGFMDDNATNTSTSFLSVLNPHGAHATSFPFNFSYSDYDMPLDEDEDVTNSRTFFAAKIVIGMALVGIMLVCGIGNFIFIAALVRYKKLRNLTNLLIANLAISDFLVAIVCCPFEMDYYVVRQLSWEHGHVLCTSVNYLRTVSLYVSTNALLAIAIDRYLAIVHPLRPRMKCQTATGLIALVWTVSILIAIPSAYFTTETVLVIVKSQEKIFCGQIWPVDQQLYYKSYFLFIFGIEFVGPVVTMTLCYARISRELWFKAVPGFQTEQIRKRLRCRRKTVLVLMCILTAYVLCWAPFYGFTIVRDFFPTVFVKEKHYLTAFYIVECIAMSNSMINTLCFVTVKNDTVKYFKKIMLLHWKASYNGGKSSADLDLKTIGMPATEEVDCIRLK
# METHOD: PK1 functional assay: Ca2+ mobilization screening for PK1 antagonists on the FLIPR
# Assay type: cell-based
# APPLIED_CONDITIONS: HEK293, 10 μM compound; HEK 293 GPR73 cells; multiple values = multiple testing; read-out: Ca^2+ Mobilization % Inh @ 10 μM
MEASUREMENT_LABEL: inhibition at 10 µM (%)
Entry rule: numbers only, all in %.

COc1ccc(Cn2c(NCc3cccnc3N)nc(=O)n(Cc3ccccc3)c2=O)cc1 [Cpd 43]; 78
COCCCCCn1c(NCc2c(C)cc(C)nc2N)nc(=O)n(Cc2ccccc2)c1=O [Cpd 254]; 96
COc1ccc(Cn2c(NCc3ccncc3)nc(=O)n(Cc3ccc(OC)cc3)c2=O)cc1 [Cpd 41]; 72

Now let's try a different one.
inhibition at 10 µM in this record for COc1ccc(Cn2c(=O)nc(NCc3cccnc3N)n(Cc3ccccc3OC(F)(F)F)c2=O)cc1 [Cpd 87] : 53
